Values were extracted from ChEMBL document CHEMBL4616696.

Below is a list of entries, each paired with its recorded MIC value.
Tested on: Candida albicans
METHOD_NOTES: Antifungal activity against fluconazole-resistant Candida albicans 632 assessed as reduction in fungal growth by NCCLS method
Format: functional

Worked set:
# MOLECULE, ASSAY_TARGET, MIC
rows = [
    ("CN(CC(=O)NCc1ccccc1)C(=O)c1cccc2c1OCCO2", "Candida albicans", "> 16 µg/mL"),
    ("CN(CC(=O)Nc1ccccc1)C(=O)c1cccc2ccccc12", "Candida albicans", "> 16 µg/mL"),
]

Give its MIC value. Item: OC(Cn1cncn1)(Cn1cncn1)c1ccc(F)cc1F [FLUCONAZOLE] > 16 µg/mL

---

System: Candida albicans
METHOD_NOTES: Antifungal activity against fluconazole-resistant Candida albicans 17# assessed as reduction in fungal growth by NCCLS method
Assay type: functional
# MIC values compiled below

# COMPOUND, MIC
measured = [
    ("OC(Cn1cncn1)(Cn1cncn1)c1ccc(F)cc1F [FLUCONAZOLE]", "> 16 µg/mL"),
    ("CN(CC(=O)Nc1ccccc1)C(=O)c1cccc2ccccc12", "> 16 µg/mL"),
]

Attention now turns to another entry.
Dear colleague, I am looking for the recorded MIC of the following compound: CN(CC(=O)NCc1ccccc1)C(=O)c1cccc2c1OCCO2 > 16 µg/mL

---

System: Candida albicans
METHOD_NOTES: Antifungal activity against fluconazole-resistant Candida albicans 904 assessed as reduction in fungal growth by NCCLS method
Format: functional
MEASURE: MIC

Record excerpt, results attached:
# COMPOUND, MIC
records = [
    ("CN(CC(=O)NCc1ccccc1)C(=O)c1cccc2ccccc12", "> 16 µg/mL"),
    ("CN(CC(=O)Nc1ccccc1)C(=O)c1cccc2ccccc12", "> 16 µg/mL"),
]

Consider the additional compound presented here.
Which MIC reading was recorded for the compound OC(Cn1cncn1)(Cn1cncn1)c1ccc(F)cc1F [FLUCONAZOLE] ? > 16 µg/mL
